Biological target: Klenow fragment lacking exonuclease activity (KF exo−) (Escherichia coli, UniProt P00582, D355A/E357A)
Construct: enzyme solution of the Klenow fragment lacking exonuclease activity (KF exo^−, Amersham USB); purchased Amersham USB
Sequence (P00582 324-928 D355A/E357A): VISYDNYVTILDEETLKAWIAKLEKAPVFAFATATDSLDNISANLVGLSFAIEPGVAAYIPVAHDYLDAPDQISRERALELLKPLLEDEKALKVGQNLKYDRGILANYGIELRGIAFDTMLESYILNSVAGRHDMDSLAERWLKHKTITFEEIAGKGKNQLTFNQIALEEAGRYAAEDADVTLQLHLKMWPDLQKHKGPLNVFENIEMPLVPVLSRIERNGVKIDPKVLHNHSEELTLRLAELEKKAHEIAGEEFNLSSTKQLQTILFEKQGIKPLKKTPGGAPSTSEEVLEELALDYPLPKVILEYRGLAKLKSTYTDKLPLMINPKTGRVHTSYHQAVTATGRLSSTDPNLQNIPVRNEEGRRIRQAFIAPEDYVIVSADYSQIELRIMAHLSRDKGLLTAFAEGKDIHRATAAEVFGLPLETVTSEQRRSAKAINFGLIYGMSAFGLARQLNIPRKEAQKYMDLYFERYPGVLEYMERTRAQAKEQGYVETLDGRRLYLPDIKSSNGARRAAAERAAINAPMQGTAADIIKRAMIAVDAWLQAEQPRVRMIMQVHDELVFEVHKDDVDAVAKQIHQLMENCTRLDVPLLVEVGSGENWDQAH
Type: biochemical, E. coli
Conditions: template (N) = G, temp35N-1; 37° C.
Protocol: The single nucleotide insertion experiment was performed as described in documents (Non-patent Documents 30-32). […] The diluted products were analyzed in an automated ABI377 DNA sequencer equipped with GeneScan software (version 3.0) (Non-patent Document 32). The relative velocity (v0) was calculated by dividing the extent of reaction by the reaction time, and then normalized to the enzyme concentration (20 nM) for the various enzyme concentrations used. […]
Let's look at some compounds and their measured Efficiency (Vmax/KM).

Please review the entries below; each comes with its answer.
| COMPOUND | Efficiency (Vmax/KM) |
| --- | --- |
| Cc1cn([C@H]2C[C@H](O)[C@@H](COP(=O)(O)OP(=O)(O)OP(=O)(O)O)O2)c(=O)[nH]c1=O [dTTP, reference compound] | 2.1 × 10^3 % min^−1M^−1 |
| Nc1ccn([C@H]2C[C@H](O)[C@@H](COP(=O)(O)OP(=O)(O)OP(=O)(O)O)O2)c(=O)n1 [dCTP, reference compound] | 2.3 × 10^7 % min^−1M^−1 |
| O=Cc1cccn1[C@H]1C[C@H](O)[C@@H](COP(=O)(O)OP(=O)(O)OP(=O)(O)O)O1 | 4.4 × 10^2 % min^−1M^−1 |

Problem: Name the recorded Efficiency (Vmax/KM) of the compound listed here: CC#Cc1cc(C=O)n([C@H]2C[C@H](O)[C@@H](COP(=O)(O)OP(=O)(O)OP(=O)(O)O)O2)c1
Solution: 1.6 × 10^3 % min^−1M^−1

---

Biological target: Klenow fragment lacking exonuclease activity (KF exo−) (Escherichia coli, UniProt P00582, D355A/E357A)
Construct: enzyme solution of the Klenow fragment lacking exonuclease activity (KF exo^−, Amersham USB); purchased Amersham USB
Format: biochemical, E. coli
Details: template (N) = C, temp35N-2; 37° C.
MEASURED METRIC: Vmax (% min^−1)
The answer is to be given in % min^−1; state only the numeric part.

| COMPOUND | MEASURED METRIC | VALUE MEASURED |
| --- | --- | --- |
| O=P(O)(O)OP(=O)(O)OP(=O)(O)OC[C@H]1O[C@@H](n2cnc3c(-c4cccs4)ccnc32)C[C@@H]1O | Vmax | 1.3 |
| NP(=O)(O)OP(=O)(O)OP(=O)(O)OC[C@H]1O[C@@H](n2cnc3c(-c4cccs4)ccnc32)C[C@@H]1O | Vmax | 0.64 |

Problem: Give me measured Vmax, please, for this compound: Nc1nc2c(ncn2[C@H]2C[C@H](O)[C@@H](COP(=O)(O)OP(=O)(O)OP(=O)(O)O)O2)c(=O)[nH]1 [dGTP, reference compound]
Solution: 16

Problem: Annotate the compound Nc1ncnc2c1ncn2[C@H]1C[C@H](O)[C@@H](COP(=O)(O)OP(=O)(O)OP(N)(=O)O)O1 with its measured Vmax.
Solution: 0.20

---

Target: Klenow fragment lacking exonuclease activity (KF exo−) (Escherichia coli, UniProt P00582, D355A/E357A)
Construct: enzyme solution of the Klenow fragment lacking exonuclease activity (KF exo^−, Amersham USB); purchased Amersham USB
Type: biochemical, E. coli
Conditions: template (N) = Pa′, temp35N-2; 37° C.
MEASURED METRIC: Vmax (% min^−1)
Field: numeric (% min^−1). Do not append units.

Before answering, review these 4 worked examples.
| COMPOUND | UNIT ANNOTATION | Vmax |
| --- | --- | --- |
| CC#Cc1cc(C=O)n([C@H]2C[C@H](O)[C@@H](COP(=O)(O)OP(=O)(O)OP(=O)(O)O)O2)c1 | % min^−1 | 7.8 |
| O=P(O)(O)OP(=O)(O)OP(=O)(O)OC[C@H]1O[C@@H](n2cnc3c(-c4cccs4)ccnc32)C[C@@H]1O | % min^−1 | 21 |
| Cc1cn([C@H]2C[C@H](O)[C@@H](COP(=O)(O)OP(=O)(O)OP(=O)(O)O)O2)c(=O)[nH]c1=O [dTTP, reference compound] | % min^−1 | 0.14 |
| NP(=O)(O)OP(=O)(O)OP(=O)(O)OC[C@H]1O[C@@H](n2cnc3c(-c4cccs4)ccnc32)C[C@@H]1O | % min^−1 | 13 |

Problem: Provide only the value of recorded Vmax for Nc1nc2c(ncn2[C@H]2C[C@H](O)[C@@H](COP(=O)(O)OP(=O)(O)OP(=O)(O)O)O2)c(=O)[nH]1 [dGTP, reference compound]
Solution: 0.44

Problem: // Input: Nc1ncnc2c1ncn2[C@H]1C[C@H](O)[C@@H](COP(=O)(O)OP(=O)(O)OP(N)(=O)O)O1 . Output its Vmax only.
Solution: 2.4

---

Target: Klenow fragment lacking exonuclease activity (KF exo−) (Escherichia coli, UniProt P00582, D355A/E357A)
Construct: enzyme solution of the Klenow fragment lacking exonuclease activity (KF exo^−, Amersham USB); purchased Amersham USB
Assay type: biochemical, E. coli
Conditions: template (N) = C, temp35N-2; 37° C.
Description: The single nucleotide insertion experiment was performed as described in documents (Non-patent Documents 30-32). […] The diluted products were analyzed in an automated ABI377 DNA sequencer equipped with GeneScan software (version 3.0) (Non-patent Document 32). The relative velocity (v0) was calculated by dividing the extent of reaction by the reaction time, and then normalized to the enzyme concentration (20 nM) for the various enzyme concentrations used. […]
// values below are reported Km

Sample records with Km:
| COMPOUND | Km |
| --- | --- |
| NP(=O)(O)OP(=O)(O)OP(=O)(O)OC[C@H]1O[C@@H](n2cnc3c(-c4cccs4)ccnc32)C[C@@H]1O | 440 µM |
| Nc1ncnc2c1ncn2[C@H]1C[C@H](O)[C@@H](COP(=O)(O)OP(=O)(O)OP(N)(=O)O)O1 | 590 µM |
| O=P(O)(O)OP(=O)(O)OP(=O)(O)OC[C@H]1O[C@@H](n2cnc3c(-c4cccs4)ccnc32)C[C@@H]1O | 47 µM |

Problem: Complete the entry with Km for Nc1nc2c(ncn2[C@H]2C[C@H](O)[C@@H](COP(=O)(O)OP(=O)(O)OP(=O)(O)O)O2)c(=O)[nH]1 [dGTP, reference compound]
Solution: 2.3 µM

---

Target: Klenow fragment lacking exonuclease activity (KF exo−) (Escherichia coli, UniProt P00582, D355A/E357A)
Construct: enzyme solution of the Klenow fragment lacking exonuclease activity (KF exo^−, Amersham USB); purchased Amersham USB
Type: biochemical, E. coli
Settings: template (N) = A, temp35N-1; 37° C.
Overview of reported Efficiency (Vmax/KM) across a group of molecules:

These solved cases illustrate the format of a correct answer.
| MOLECULE | Efficiency (Vmax/KM) |
| --- | --- |
| O=Cc1cccn1[C@H]1C[C@H](O)[C@@H](COP(=O)(O)OP(=O)(O)OP(=O)(O)O)O1 [dPaTP] | 5.2 × 10^4 % min^−1M^−1 |
| Nc1ccn([C@H]2C[C@H](O)[C@@H](COP(=O)(O)OP(=O)(O)OP(=O)(O)O)O2)c(=O)n1 [dCTP, reference compound] | 1.8 × 10^3 % min^−1M^−1 |
| CC#Cc1cc(C=O)n([C@H]2C[C@H](O)[C@@H](COP(=O)(O)OP(=O)(O)OP(=O)(O)O)O2)c1 [dPa′TP] | 1.8 × 10^5 % min^−1M^−1 |

Proceeding to the next molecule to report its Efficiency (Vmax/KM).
Problem: Quick one: give measured Efficiency (Vmax/KM) for Cc1cn([C@H]2C[C@H](O)[C@@H](COP(=O)(O)OP(=O)(O)OP(=O)(O)O)O2)c(=O)[nH]c1=O [dTTP, reference compound]
Solution: 4.0 × 10^6 % min^−1M^−1

---

Molecular target: Klenow fragment lacking exonuclease activity (KF exo−) (Escherichia coli, UniProt P00582, D355A/E357A)
Construct: enzyme solution of the Klenow fragment lacking exonuclease activity (KF exo^−, Amersham USB); purchased Amersham USB
Assay type: biochemical, E. coli
Conditions: template (N) = C, temp35N-2; 37° C.
Each entry below lists one item and its recorded Efficiency (Vmax/KM) value.

| COMPOUND | VALUE MEASURED |
| --- | --- |
| NP(=O)(O)OP(=O)(O)OP(=O)(O)OC[C@H]1O[C@@H](n2cnc3c(-c4cccs4)ccnc32)C[C@@H]1O [dDsTPN] | 1.5 × 10^3 % min^−1M^−1 |
| Nc1nc2c(ncn2[C@H]2C[C@H](O)[C@@H](COP(=O)(O)OP(=O)(O)OP(=O)(O)O)O2)c(=O)[nH]1 [dGTP, reference compound] | 7.0 × 10^6 % min^−1M^−1 |
| Nc1ncnc2c1ncn2[C@H]1C[C@H](O)[C@@H](COP(=O)(O)OP(=O)(O)OP(N)(=O)O)O1 [dATPN] | 3.4 × 10^2 % min^−1M^−1 |

For the next question, use this compound.
Problem: State its Efficiency (Vmax/KM) for this compound: O=P(O)(O)OP(=O)(O)OP(=O)(O)OC[C@H]1O[C@@H](n2cnc3c(-c4cccs4)ccnc32)C[C@@H]1O [dDsTP]
Solution: 2.8 × 10^4 % min^−1M^−1
